# Test system: HepG2
# TEST: Cytostatic activity against human HepG2 cells by SRB assay
# Type: functional
ASSAY_ENDPOINT: TGI (µM)
// return numeric value only (unit: µM, not printed)

C[C@H]1CC[C@@]2(OC1)O[C@H]1C=C3[C@@H]4CC[C@H]5Cc6nc7c(nc6C[C@]5(C)[C@H]4C[C@@H](O)[C@]3(C)[C@H]1[C@@H]2C)C[C@@H]1CC[C@H]2C3=C[C@@H]4O[C@]5(CC[C@H](C)CO5)[C@@H](C)[C@@H]4[C@@]3(C)C(CO)C[C@@H]2[C@@]1(C)C7 (stereo partly drawn)	10

Task: Return value of TGI for input `C[C@H]1CC[C@@]2(OC1)O[C@H]1C=C3[C@@H]4CC[C@H]5Cc6nc7c(nc6C[C@]5(C)[C@H]4C[C@@H](O)[C@]3(C)[C@H]1[C@@H]2C)C[C@@H]1CC[C@H]2C3=C[C@@H]4O[C@]5(CC[C@H](C)CO5)[C@@H](C)[C@@H]4[C@@]3(C)C3(C[C@@H]2[C@@]1(C)C7)OCCO3` , no commentary.
Result: 1.7
